System: neutrophils
Test: Neutrophil calcium flux assay (5-OXO-ETE-stimulated, Indo-1 fluorescence)
Format: cell-based
Details: Neutrophil, 5-OXO-ETE-stimulated calcium flux
Listed here: items and their measured IC50.

- COMPOUND: "CC(C)OCCCc1c(C(=O)C[C@H](C)CC(=O)O)c2cc(Cl)ccc2n1C [Compound I-71]"
  IC50: "> 300 nM"
- COMPOUND: "C[C@H](CC(=O)O)CC(=O)c1c(CCCCOCc2cc(Cl)cc(Cl)c2)n(C)c2ncc(C#N)cc12 [Compound I-385]"
  IC50: "< 100 nM"
- COMPOUND: "CC(CC(=O)O)CC(=O)c1c(CCCCCC(O)c2ccc(F)c(Cl)c2)n(C)c2ncc(C#N)cc12 (stereo not shown) [Compound I-301]"
  IC50: "< 100 nM"

Reported IC50 of C[C@H](CC(N)=O)CC(=O)c1c(CCCCOCc2cccc(Cl)c2)n(C)c2ncc(Cl)cc12 [Compound I-356] : > 300 nM

Reported IC50 of CC(CC(=O)O)CC(=O)c1c(CCCCOCc2cccc(Cl)c2)n(CCO)c2ncc(Cl)cc12 (stereo not shown) [Compound I-378] : > 300 nM

Reported IC50 of C[C@H](CC(=O)O)CC(=O)c1c(CCOCCNc2cccnc2)n(C)c2ccc(Cl)cc12 [Compound I-137] : > 300 nM

Reported IC50 of C[C@@H](CC(=O)O)CC(=O)c1c([C@H](O)CCCCCc2cccc(Cl)c2)n(C)c2ccc(Cl)cc12 [Compound I-6] : > 300 nM

Recorded values, source patent US20250154145A1.
